assay: decrease of insulin promoter-GFP reporter – imaging, high-content screening, mouse beta cells (AID 1628); conditions: MIN6 insulin promoter GFP reporter, at 5 µM, stronger effect = lower value
The campaign covered roughly 190,000 compounds. About 930 (0.49%) were called active. The list shows a part of the results. Results with a measured potency or affinity are listed apart.
Property: z-score; scope: individual compounds
Answer using only a numeral; do not append any unit.

> print(dat)
                                   compound  readout.name  numeric.readout
1  COc1cc([N+](=O)[O-])ccc1-c1ccc(/C=N/NC(N)=O)o1       z-score             3.33
2  Cc1ccc2[nH]c3c(c2c1)CN(C(=O)CN1CCN(Cc2ccc4c(c2)OCO4)CC1)CC3       z-score            -3.96
3  O=C(/C=C/c1ccc(N2CCC(c3ccccc3)=N2)cc1)c1ccccc1       z-score             17.2
4  O=S(=O)(Cc1ccc(Cl)cc1)c1ccccc1-c1nnc(-c2ccccc2)o1       z-score             13.8
5  CC(=O)Nc1ccc(N2CCc3c(C)c(C#N)c4nc5ccccc5n4c32)cc1       z-score              3.8

Query: Which z-score value belongs to CC(C)NC(=O)NC(=O)COC(=O)c1cccc(S(=O)(=O)N2CCCCC2)c1 ?
Reply: 4.62

Query: Look up z-score: O=C(Nc1nnc(-c2ccc(Cl)s2)o1)C1CC1
Reply: 2.8

Query: Look up z-score: CCN1C(=O)CSc2ccc(C(=O)NCc3ccccc3OC)cc21
Reply: 3.1

Query: GET /values?readout=z-score&item= CC(=O)N1CCOCCOCCN(C(C)=O)CCOCC1
Reply: 2.13

Query: I'd like to know its z-score. The compound in question is CN(C)c1ccc(/C=C2\SC(=O)N(CCc3nnc(N)s3)C2=O)cc1
Reply: 3.27

Query: Look at this compound and give its reported z-score. Cc1ccc(Cn2nnc3c(=O)n(CC(=O)NCc4ccco4)cnc32)cc1
Reply: 1.28

Query: Consider the compound O=C1S/C(=C/c2ccc(N3CCOCC3)o2)C(=O)N1Cc1ccc(F)cc1 and give its measured z-score.
Reply: 11.4

Query: Value lookup for z-score; key = COC(=O)c1cc2c(-c3ccccc3)cc3ccccn3c-2c1C(=O)OC
Reply: 3.3

Query: Dear colleague, I am looking for the recorded z-score of the following compound: O=C(COC(=O)c1ccco1)NCC1CCCO1 (stereo not drawn)
Reply: 3.04

Query: Consider the compound CCOC(=O)c1ccc(Nc2ccc(-c3ccc(OC)c(OC)c3)nn2)cc1 and give its measured z-score.
Reply: -3.46

Query: What value of z-score has been reported for the following compound? CCOC(=O)c1nnn(-c2nonc2N)c1CN1CCCCCC1
Reply: 0.52

Query: Can you share its z-score? I mean this compound: O=c1[nH]c(CN2CCN(Cc3ccc4c(c3)OCO4)CC2)nc2sc3c(c12)CCC3
Reply: 3.55

Query: Report z-score for CCCS(=O)(=O)N1CCN(Cc2ccccc2[N+](=O)[O-])CC1 please.
Reply: -3.06

Query: Would you mind telling me what z-score value was observed for CCOc1ccc(CNC(=O)CCn2c(=O)oc3ccccc32)cc1 ?
Reply: 3.4

Query: For the compound shown here, Cc1c(-c2cc(C(=O)O)on2)cnn1C , give the reported z-score.
Reply: 1.94

Query: What does the record list as z-score for Cc1ccccc1CN(c1ccc(C(=O)NCC2CCCO2)cc1)S(C)(=O)=O (stereo not drawn) ?
Reply: -4.88

Query: Could you tell me which z-score is on file for CCOC(=O)c1nnn(-c2nonc2N)c1-c1ccc(OCC)cc1 ?
Reply: 3.82

Query: Endpoint output: z-score of CCOc1ccc(-n2c(O)c(/C=N/Nc3nnc(C)c(=O)[nH]3)c3ccccc3c2=O)cc1 . Value?
Reply: -5.62

---

experiment: decrease of insulin promoter-GFP reporter – imaging, high-content screening, mouse beta cells (AID 1628); conditions: MIN6 insulin promoter GFP reporter, at 5 µM, stronger effect = lower value
Hit rate of the full screen: of about 190,000 compounds, about 930 (0.49%) were called active. The list shows a part of the results. Entries with a potency or affinity are not part of this list.
Please map values of z-score to classes as shown: lower bin: < 0.7; middle bin: ≥ 0.7 and < 4; upper bin: ≥ 4

> print(dat)
                                   compound  answer.label
1  CC1c2nc3ccccc3n2C(CC(=O)NCCCN2CCOCC2)C(=O)N1Cc1ccccc1 (stereo unspecified)    middle bin
2               O=C(NCc1cn2ccccc2n1)c1ccco1    middle bin
3                  CN(C)/C=C1/Nc2ccccc2C1=O     upper bin
4      O=C(NCc1ccccn1)c1ccc(Cn2cc(Br)cn2)o1     lower bin
5  O=C1/C(=N\S(=O)(=O)c2cccs2)C([n+]2cccc(Cc3ccccc3)c2)=C([O-])c2ccccc21     upper bin
6      C[N+](C)(C)CCCNC(=O)c1ccc(/C=N/O)nc1    middle bin
7    COc1ccc2cc3cc(C(=O)NCc4ccccn4)oc3nc2c1    middle bin
8  Cc1cc(C)cc(NC(=O)/C=C/c2ccc([N+](=O)[O-])s2)c1     upper bin

Query: GET /class?item= COC(=O)c1ccc(N2CCN(S(=O)(=O)c3ccc4ccccc4c3)CC2)c([N+](=O)[O-])c1
Reply: lower bin

Query: Given Cc1nc2ccccn2c1-c1csc(NCc2ccco2)n1 , name the class its z-score places it in.
Reply: lower bin

---

assay: decrease of insulin promoter-GFP reporter – imaging, high-content screening, mouse beta cells (AID 1628); settings: MIN6 insulin promoter GFP reporter, at 5 µM, stronger effect = lower value
Out of some 190,000 compounds screened, about 930 (0.49%) were called active. The list shows a part of the results. Results with a measured potency or affinity are listed apart.
READOUT NAME: z-score

Reference set (4 entries):
> print(dat)
                                     smiles  readout.name           result
1               COc1ccc(C)cc1NC(=O)COC(C)=O       z-score  3.48 (inactive)
2  CC(C)N=c1scc(-c2ccco2)n1/N=C/c1ccc(O)c(O)c1       z-score    -5.1 (active)
3  COC(=O)[C@H]1[C@H](C(=O)OC)[C@@H](C(=O)OC)N(c2ccc(OC)cc2)[C@@H]1C(=O)OC       z-score   -4.45 (active)
4  COc1ccc(NC(=S)N(CCCN2CCC(C)CC2)Cc2cccs2)cc1       z-score  1.67 (inactive)

Continue with the next molecule.
Query: Request the reported z-score associated with CC(C)CCn1nc(C(=O)Nc2nc3c(s2)CCCC3)c2ccccc2c1=O
Reply: -3.57 (active)

---

assay: decrease of insulin promoter-GFP reporter – imaging, high-content screening, mouse beta cells (AID 1628); details: MIN6 insulin promoter GFP reporter, at 5 µM
In all, about 190,000 compounds went through this assay and about 930 (0.49%) were called active.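 The calls were made as follows: active = z-score of insulin promoter reporter brightness in nuclei below -3 at 5 µM, with at least 500 cells counted; inconclusive = wells with under 500 cells, flagged as toxic or sparse; inactive = the rest.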 The list shows a part of the results. Potency and affinity values are given separately.
Reply using exactly one outcome from y = active, n = inactive

// below: answered compounds
> print(dat)
                                     smiles  answer.label
1  CCOc1cc(/C=C/C(=O)Nc2ccc(C(=O)NCCN(CC)CC)cc2)ccc1OCC(C)C             y
2  CCOc1ccc2c(c1)C(C)=CC(C)(C)N2S(=O)(=O)c1ccc(C)cc1             y
3  CCN1CCN(C(=O)c2cn(CC)c3ccc(S(=O)(=O)N(C)C)cc3c2=O)CC1             n
4  CCOc1ccc(NS(=O)(=O)c2ccc(NS(=O)(=O)c3ccccc3)cc2)cc1             n

Now consider a different compound.
Query: Could you please tell me the result logged for CCn1c(C)[n+](CC)c2ccc(S(=O)(=O)N(C)C)cc21 in this assay?
Reply: y

---

test: decrease of insulin promoter-GFP reporter – imaging, high-content screening, mouse beta cells (AID 1628); details: MIN6 insulin promoter GFP reporter, at 5 µM
The campaign covered roughly 190,000 compounds. About 930 (0.49%) were called active.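 How the source made its calls: active means z-score of insulin promoter reporter brightness in nuclei below -3 at 5 µM, with at least 500 cells counted; inconclusive means wells with under 500 cells, flagged as toxic or sparse; inactive means the rest.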 This is one part of the list. Potency and affinity values are given separately.
Select the correct class. Options are active, inactive and nothing else.

> print(dat)
                                   molecule  answer.label
1  COc1cc2c3nnc(-c4ccc(F)cc4)c-3cn(Cc3ccccc3F)c2cc1OC      inactive
2              O=C(NCc1cccnc1)c1cnn2ccccc12        active
3  CCC(=O)Oc1ccc(C(=O)Nc2c[nH]c(=O)[nH]c2=O)cc1        active

Query: Outcome? c1ccc2c3c([nH]c2c1)C1(CCCCC1)NCC3
Reply: inactive

Query: I would be grateful if you could indicate the recorded call for C=CCNC(=S)NNC(=O)c1ccc(OCCCC)cc1 .
Reply: inactive

Query: Each molecule tested received a call. Report the one for CCCCN(C)CC(O)Cn1cc(/C=C/C(=O)c2cccs2)c2ccccc21 (stereo unspecified) .
Reply: inactive
